Items are presented alongside their recorded Internalization %, MCF-7, 0.5 µg/ml, 4 h.
- study target: T1, human Trop-2 expressed on cell surface (human, UniProt P09758 27-323)
- T1 sequence (looked up): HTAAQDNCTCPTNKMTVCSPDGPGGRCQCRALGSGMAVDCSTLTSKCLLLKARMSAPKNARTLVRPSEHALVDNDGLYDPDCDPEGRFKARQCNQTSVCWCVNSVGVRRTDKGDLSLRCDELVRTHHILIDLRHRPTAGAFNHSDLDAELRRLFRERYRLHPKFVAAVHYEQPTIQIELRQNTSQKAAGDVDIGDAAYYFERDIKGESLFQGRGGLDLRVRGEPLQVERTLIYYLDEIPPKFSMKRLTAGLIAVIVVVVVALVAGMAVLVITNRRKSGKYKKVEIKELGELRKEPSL
- assay procedure: cell-based or functional assay
endpoint: Internalization %, MCF-7, 0.5 µg/ml, 4 h (%)

binder | units of measure | readout number
5D4-2 (antibody, V domains shown) VH: QQLEESGGGLVKPEGSLTLTCKGSGFDFSGTYWMWWVRQAPGKGLEWIASIYVGSGSSTYYASWAKGRFTISSTSSTAVTLQATSLTAADTATYFCARGATNNVFMNYFNLWGPGTLVTVSS VL: FEMTQTPSSVSEPVGGTVTIKCQASEDISSNLGWYQQKPGQPPKLLIYGASTLASGVPSRFKGSGSGTEFTLTISDLEAADAATYYCQTSYYIDDGVNGFGGGTEVVVK | % | 61
9F7 (antibody, V domains shown, Rabbit-derived clone; LEM construct: VH + rabbit IgG CH1 + human IgG1 CH2-CH3) VH: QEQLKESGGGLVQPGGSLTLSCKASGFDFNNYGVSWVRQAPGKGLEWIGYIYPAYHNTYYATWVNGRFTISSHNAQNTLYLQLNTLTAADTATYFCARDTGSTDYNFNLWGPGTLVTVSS VL: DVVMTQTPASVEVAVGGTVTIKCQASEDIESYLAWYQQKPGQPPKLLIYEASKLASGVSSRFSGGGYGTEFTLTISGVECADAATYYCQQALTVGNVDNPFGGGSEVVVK | % | 49
63H3 (antibody, V domains shown, Rabbit-derived clone; LEM construct: VH + rabbit IgG CH1 + human IgG1 CH2-CH3) VH: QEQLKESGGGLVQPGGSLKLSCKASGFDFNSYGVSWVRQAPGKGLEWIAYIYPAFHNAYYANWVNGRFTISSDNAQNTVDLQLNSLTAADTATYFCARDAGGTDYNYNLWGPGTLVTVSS VL: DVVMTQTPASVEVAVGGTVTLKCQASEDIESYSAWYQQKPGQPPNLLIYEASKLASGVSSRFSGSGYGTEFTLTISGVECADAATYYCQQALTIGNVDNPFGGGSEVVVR | % | 44
